experiment: qHTS assay to identify small molecule antagonists of the retinoic acid receptor (RAR) signaling pathway (AID 1159552; further: nearly all actives have a fitted effect of over 50% in size); conditions: C3RL4 RARE luciferase reporter, retinol-stimulated, 6 h; series mostly up to 92.4 µM
Records with an inconclusive call do not appear. Calls of active or inactive are those of the source. The call rests on the fitted dose curve; in most records, active means well fitted inhibition curve with a large enough effect in the repeat runs; inconclusive means weak or mixed curves, or effect the other way; inactive means no such curve, though single readings can be large or run the other way.
measurement.type: activity, negative = inhibition

1) O=C1CC2(CCCC2)CC(=O)N1CCNCC1COc2ccccc2O1 (centres undefined)    inactive
2) COC(=O)c1c(C)cc(O)c(C)c1O    inactive
3) COC(=O)/C=C(\C)CCC=C(C)C    inactive
4) C=C(C)C(=O)OCCOC1CC2CC1C1C=CCC21 (centres undefined)    inactive
5) CC(C)C(=O)Nc1cccc(C2CN3CCSC3=N2)c1 (centres undefined)    inactive
6) C=C(C)C(=O)OCCCC    inactive
7) COc1cc2nc(N3CCN(C(=O)C4CCCO4)CC3)nc(N)c2cc1OC (centres undefined)    inactive
8) C=CCN(CC=C)CC=C    inactive
9) CC(=O)SC[C@@H](C)C(=O)N1CCC[C@H]1C(=O)N[C@@H](Cc1ccccc1)C(=O)O    inactive
10) CC(=O)Nc1ccc(S(=O)(=O)Nc2cc(C)on2)cc1    inactive

Data request: Return the recorded activity, negative = inhibition value; entry: c1coc(Cn2cccc2)c1
Data returned: inactive

Data request: Return the recorded activity, negative = inhibition value; entry: O=C(CCBr)N1CCN(C(=O)CCBr)CC1
Data returned: inactive

Data request: Return the recorded activity, negative = inhibition value; entry: NNC(=O)CCCCC(=O)NN
Data returned: inactive

Data request: Return the recorded activity, negative = inhibition value; entry: C/C(Cl)=C/CCl
Data returned: inactive

* * *

test: qHTS assay to identify small molecule HDAC inhibitors (AID 1259364); details: HCT-116 HDAC-Glo I/II luminescence, 2 h; series mostly up to 92.4 µM;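 further: wild-type HCT-116 cells with endogenous class I/II HDAC activity; top concentration of the series differs between compounds; nearly all actives have a fitted effect of over 45% in size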
Records with an inconclusive call do not appear. Active and inactive are the calls of the source. Calls come from the whole dose curve; as a rule, active = well fitted inhibition curve with a large enough effect in the repeat runs; inconclusive = weak or mixed curves; inactive = flat fitted curve, though single readings scatter.
measurement.type: activity change, negative = inhibition

Some compounds with recorded activity change, negative = inhibition:
1) CCCCCCCCOCCC#N    inactive
2) C[C@]12C=CC(=O)C=C1[C@@H](F)C[C@@H]1[C@@H]2[C@@H](O)C[C@@]2(C)[C@H]1CC[C@]2(O)C(=O)CO    inactive
3) CC1(C)C(=O)C(C)(C)C1=O    inactive
4) Cc1ccccc1OCC(=O)O    inactive
5) Nc1nc(Cl)cc(Cl)n1    inactive
6) NC(=O)CC[C@@H](N)C(=O)O    inactive
7) CC(=O)SC[C@@H](C)C(=O)N1CCC[C@H]1C(=O)N[C@@H](Cc1ccccc1)C(=O)O    inactive
8) CCOC(=O)CC(C(C)=O)C(C)=O    inactive
9) CCC(C)c1nccnc1OC (stereo unspecified)    inactive
10) C=CCCCCCCCCOC(C)=O    inactive

Data request: Return the recorded activity change, negative = inhibition value; entry: CCCCCCCC(=O)N(C)C
Data returned: inactive

Data request: Return the recorded activity change, negative = inhibition value; entry: C=CC(=O)CC
Data returned: inactive

Data request: Return the recorded activity change, negative = inhibition value; entry: CC(O)C(CO)C(C)O (stereo unspecified)
Data returned: inactive

Data request: Return the recorded activity change, negative = inhibition value; entry: Cc1ccc2ccccc2n1
Data returned: inactive

Data request: Return the recorded activity change, negative = inhibition value; entry: C=C(C)C(=O)OCCOC1CC2CC1C1C=CCC21 (stereo unspecified)
Data returned: inactive

Data request: Return the recorded activity change, negative = inhibition value; entry: O=S(=O)(O)c1ccc(Cl)cc1
Data returned: inactive

* * *

target: Cytochrome P450 2C19 (Homo sapiens) (UniProt P33261); assay: Cytochrome P450 Family 2 Subfamily C Member 19 (CYP2C19) small molecule antagonists: luciferase reporter qHTS assay (AID 1671197); settings: P450-Glo CYP2C19 enzyme, luciferin luminescence, 1 h; series mostly up to 115 µM; further: nearly all actives have a fitted effect of over 65% in size
Sequence (P33261 whole entry, looked up): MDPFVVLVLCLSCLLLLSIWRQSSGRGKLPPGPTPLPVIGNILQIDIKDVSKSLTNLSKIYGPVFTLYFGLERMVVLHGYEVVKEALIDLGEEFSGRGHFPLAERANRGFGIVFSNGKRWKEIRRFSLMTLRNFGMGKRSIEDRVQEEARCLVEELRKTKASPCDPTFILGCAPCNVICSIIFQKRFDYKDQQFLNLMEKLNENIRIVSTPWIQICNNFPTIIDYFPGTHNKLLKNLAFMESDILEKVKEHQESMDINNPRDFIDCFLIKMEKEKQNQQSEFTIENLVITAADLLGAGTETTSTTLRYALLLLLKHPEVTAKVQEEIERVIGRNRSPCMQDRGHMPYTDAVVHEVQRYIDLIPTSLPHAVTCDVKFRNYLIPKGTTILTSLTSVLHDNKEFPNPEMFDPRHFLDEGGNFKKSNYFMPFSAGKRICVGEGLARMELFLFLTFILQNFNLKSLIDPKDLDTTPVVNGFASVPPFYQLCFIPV
Inconclusive results are not listed. The source made the active and inactive calls. The call rests on the fitted dose curve; in most records, active means well fitted inhibition curve with a large enough effect in the repeat runs; inconclusive means weak or mixed curves; inactive means no such curve, though single readings can be large or run the other way.
Form entry, call: pick from active, inactive

Data request: For COC(=O)C(c1ccccc1Cl)N1CCc2sccc2C1 (centres undefined) , what call appears in the results of this test?
Data returned: active

Data request: For C=CCON/C(CCC)=C1\C(=O)CC(C)(C)C(C(=O)OC)=C1O , what call appears in the results of this test?
Data returned: active

Data request: For CN(C)CCc1c[nH]c2ccc(C[C@H]3COC(=O)N3)cc12 , what call appears in the results of this test?
Data returned: inactive

Data request: For CCCCCCC(=O)c1ccccc1 , what call appears in the results of this test?
Data returned: inactive

Data request: For CN(C)c1cc(NC(=O)CNC(C)(C)C)c(O)c2c1C[C@H]1C[C@H]3[C@H](N(C)C)C(=O)C(C(N)=O)=C(O)[C@@]3(O)C(=O)C1=C2O , what call appears in the results of this test?
Data returned: active

Data request: For C=COCCCCO , what call appears in the results of this test?
Data returned: inactive

Data request: For Cc1cc(C)c(C)c(C)c1 , what call appears in the results of this test?
Data returned: inactive

Data request: For COc1ccccc1N1CCN(CC(O)COc2cc(OC)c(OC)c(OC)c2)CC1 (centres undefined) , what call appears in the results of this test?
Data returned: inactive

Data request: For CCCCN=C(N)N=C(N)N , what call appears in the results of this test?
Data returned: inactive

Data request: For COC(=O)c1ccc(C(=O)O)cc1 , what call appears in the results of this test?
Data returned: inactive

Data request: For Cc1ccc2ccccc2n1 , what call appears in the results of this test?
Data returned: inactive

Data request: For CC(C)(O)c1ccc(C(C)(C)O)cc1 , what call appears in the results of this test?
Data returned: inactive

Data request: For CCCCC(O)/C=C(C)/C=C/C=C/C(=O)N1CCCC1=O (centres undefined) , what call appears in the results of this test?
Data returned: inactive

Data request: For CCOc1ccccc1OCCN[C@H](C)Cc1ccc(OC)c(S(N)(=O)=O)c1 , what call appears in the results of this test?
Data returned: inactive

Data request: For CCCCCC(=O)CC , what call appears in the results of this test?
Data returned: inactive

Data request: For CCCCCCCCCCCBr , what call appears in the results of this test?
Data returned: inactive

Data request: For CC(CC(=O)Cl)CC(C)(C)C (centres undefined) , what call appears in the results of this test?
Data returned: active

Data request: For O=c1c(O)c(O)c1=O , what call appears in the results of this test?
Data returned: inactive

Data request: For COC(=O)c1ccccc1Cl , what call appears in the results of this test?
Data returned: inactive

Data request: For CCCCN1C(=O)c2ccccc2C1=O , what call appears in the results of this test?
Data returned: active

Data request: For O=CN1CCCCC1 , what call appears in the results of this test?
Data returned: inactive

Data request: For CCCCCCCOC(C)=O , what call appears in the results of this test?
Data returned: inactive

Data request: For CN(C)c1ccncc1 , what call appears in the results of this test?
Data returned: inactive

Data request: For COC(=O)c1c(C)cc(O)c(C)c1O , what call appears in the results of this test?
Data returned: active

Data request: For O=C(O)COc1ccc2ccccc2c1 , what call appears in the results of this test?
Data returned: inactive

Data request: For COc1cc(C(=O)NC2CCCNC2)cc(OC)c1OC (centres undefined) , what call appears in the results of this test?
Data returned: inactive

Data request: For Clc1ccc2c(c1)Nc1ccccc1S2 , what call appears in the results of this test?
Data returned: active

Data request: For Cc1ccc(O)c(C(=O)c2ccccc2)c1 , what call appears in the results of this test?
Data returned: active

Data request: For O=S(=O)(O)CC(O)CCl (centres undefined) , what call appears in the results of this test?
Data returned: inactive

Data request: For C=CCN(CC=C)CC=C , what call appears in the results of this test?
Data returned: inactive

Data request: For CCCC[O][Al]([O]CCCC)[O]CCCC , what call appears in the results of this test?
Data returned: inactive

Data request: For C[C@@H]1CCC[C@H](C)N1CCCC(O)(c1ccccc1)c1ccccn1 (some centres undefined) , what call appears in the results of this test?
Data returned: inactive

Data request: For Cc1nnc(C(=O)NC(C)(C)c2nc(C(=O)NCc3ccc(F)cc3)c(O)c(=O)n2C)o1 , what call appears in the results of this test?
Data returned: inactive

Data request: For Cc1ccc(O)c([N+](=O)[O-])c1 , what call appears in the results of this test?
Data returned: inactive

Data request: For CCO[Si](CC(C)C)(OCC)OCC , what call appears in the results of this test?
Data returned: active

Data request: For CCCCN(CCCC)CCCCCCN(CCCC)CCCC , what call appears in the results of this test?
Data returned: inactive

Data request: For O=C1CC2(CCCC2)CC(=O)N1CCNCC1COc2ccccc2O1 (centres undefined) , what call appears in the results of this test?
Data returned: inactive

Data request: For O=S(=O)(O)c1cc(I)c(O)c2ncccc12 , what call appears in the results of this test?
Data returned: inactive

Data request: For O=C1c2ccccc2C(=O)N1CO , what call appears in the results of this test?
Data returned: inactive

Data request: For O=S(=O)(O)c1ccc(Cl)cc1 , what call appears in the results of this test?
Data returned: active

Data request: For O=C(CCBr)N1CCN(C(=O)CCBr)CC1 , what call appears in the results of this test?
Data returned: inactive

Data request: For CC(C)(C)OC=O , what call appears in the results of this test?
Data returned: inactive

Data request: For CCCCCCCCS(=O)(=O)O , what call appears in the results of this test?
Data returned: inactive

Data request: For Cc1cc(=O)oc2cc(O[C@@H]3SC[C@@H](O)[C@H](O)[C@H]3O)ccc12 , what call appears in the results of this test?
Data returned: inactive

Data request: For CCc1ncc(C)[nH]1 , what call appears in the results of this test?
Data returned: inactive

Data request: For Cc1ccc(OC(=O)CC(C)C)cc1 , what call appears in the results of this test?
Data returned: inactive

Data request: For O=C(c1ccccc1)c1cccc(O)c1 , what call appears in the results of this test?
Data returned: active

Data request: For N=C(N)N , what call appears in the results of this test?
Data returned: inactive

Data request: For CCN(CC)CC(=O)Oc1ccc(NC(C)=O)cc1 , what call appears in the results of this test?
Data returned: inactive

Data request: For Cc1ccccc1OCC(=O)O , what call appears in the results of this test?
Data returned: inactive

Data request: For CC(=O)c1ccc(O)c(C(N)=O)c1 , what call appears in the results of this test?
Data returned: inactive

Data request: For CCCCCCCCCCCC(C)=O , what call appears in the results of this test?
Data returned: inactive

Data request: For CCOC(=O)CC(C(C)=O)C(C)=O , what call appears in the results of this test?
Data returned: inactive

Data request: For CCCCCCCCCCCCCCCC/C=C/C1CC(=O)OC1=O (centres undefined) , what call appears in the results of this test?
Data returned: active

Data request: For CCC(C)(C)C , what call appears in the results of this test?
Data returned: inactive

Data request: For C=C(C)C(=O)OCCOC1CC2CC1C1C=CCC21 (centres undefined) , what call appears in the results of this test?
Data returned: active

Data request: For CCCC(=O)CC , what call appears in the results of this test?
Data returned: active

Data request: For Cc1cc(O)c(Cl)cc1C , what call appears in the results of this test?
Data returned: active

Data request: For CN1C(CCl)Nc2cc(Cl)c(S(N)(=O)=O)cc2S1(=O)=O (centres undefined) , what call appears in the results of this test?
Data returned: inactive

Data provenance: PubChem BioAssay (Tox21)
